- Test system: Staphylococcus aureus
- Measurement Description: Antibacterial activity against Staphylococcus aureus ATCC 25923 assessed as reduction in bacterial growth
- Format: functional
Value Type: MIC (µg/mL)
Just the number in µg/mL, nothing appended.

Clc1ccc(CN2CCN(Cc3c[nH]c4ccc(Br)cc34)CC2)c(Cl)c1 = 4

## Input Item Cn1cc(CN2CCN(Cc3ccc(Cl)cc3Cl)CC2)c2cc([N+](=O)[O-])ccc21 has what recorded MIC?
## Output 8

## Input Item O=[N+]([O-])c1ccc2[nH]cc(CN3CCN(Cc4ccc(Cl)cc4Cl)CC3)c2c1 has what recorded MIC?
## Output 8

## Input Item FC(F)(F)c1ccc(CN2CCN(Cc3c[nH]c4ccc(Cl)cc34)CC2)c(N2CCCC2)c1 has what recorded MIC?
## Output 4

## Input Item Cn1cc(CN2CCN(Cc3ccc(Cl)cc3Cl)CC2)c2cc(Cl)ccc21 has what recorded MIC?
## Output 4
